- SYSTEM_TESTED: the molecule itself
- PROTOCOL_SUMMARY: biological repeat 1
MEASURED_ATTRIBUTE: pKd
Remember, pKd is on a log scale: it is -log10 of the molar concentration.

Prompt line: Could you tell me which pKd is on file for R^525–610 V568S, N6His- and GST-tagged recombinant protein (domain or fragment) MDAGTSNVTVTVSDKDVLLEVQCRWEELLMTRVFDAIKSLHLDSLSVQASAPDGFMGLKIRAQFAGSGAVVPWMISEALRKAIGKR ?
Response line: 5.73
